Reported TGI by item:
Tested on: MDA-N
Experiment: NCI tumour cell line growth inhibition, 48 h
Just the number in µM, nothing appended.

structure.smiles.string: COc1ccc(/C=C(/C(=O)c2ccc(Cl)cc2)N2C=CC=CC2=C(C#N)C#N)cc1OC
assay.target: MDA-N
TGI (µM): 20.1

The record that follows has no TGI shown yet.
The measured TGI associated with O=[N+]([O-])c1cc2oc(COc3ccccc3)nc2cc1Cl reads 69.6

----------
System: UACC-257 melanoma
Experiment: NCI tumour cell line growth inhibition, 48 h
attribute.measured: TGI

The examples below pair each entry with its known result.
compound: CN1C(=O)N/C(=C\c2ccc(S(=O)(=O)NN)cc2)C1=O
reported.value: > 100 µM

compound: Nc1nc(N)c2[nH]c(CNc3ccc(C(=O)O)cc3)nc2n1
reported.value: > 100 µM

Notebook: O=[N+]([O-])c1nccn1CC(O)c1ccc(F)cc1 (stereo not given) , TGI read as > 100 µM

Please fill in: TGI reported for CCCCCCCCCCCCCCCCCCNc1ccn(C2OC(COP(=O)(O)OCC3OC(n4cc(C)c(=O)[nH]c4=O)CC3O)C(O)C2O)c(=O)n1 (stereo not given) = 37.1 µM

Looking up CC1(CCCO)CCCCCC(C)(CCCO)C1=O (stereo not given) , I found its TGI recorded as > 100 µM

----------
Readings of TGI for the listed compounds
Tested on: M14 melanoma
Assay: NCI tumour cell line growth inhibition, 48 h
Response body: numeric value in µM, unit text excluded.

Example compounds with recorded TGI:
structure.smiles.string: CC(C)(C)[SiH]12(OC(C(F)(F)F)(C(F)(F)F)c3ccccc31)OC(C(F)(F)F)(C(F)(F)F)c1ccccc12
TGI / µM: 12.7

structure.smiles.string: O=C(OCc1ccc2cccc(O)c2n1)N1CCN(C(=O)c2cc3cc(F)ccc3[nH]2)CC1
TGI / µM: 2.5

Switching to the query record.
Short answer on M14 melanoma for O=S(=O)(Nc1cc(F)cc(Cl)c1)c1ccc(-c2cnc(C3CC3)o2)cc1 , TGI: 15.5

----------
Test system: SF-539 CNS
Experiment: NCI tumour cell line growth inhibition, 48 h
Reported values of GI50 for individual entries

compound: O=C1NC(=Nc2ccccc2)S/C1=C\c1ccc2ncccc2c1
reported.value: > 6250 nM

compound: O=S(=O)(Nc1cc(F)cc(Cl)c1)c1ccc(-c2cnc(C3CC3)o2)cc1
reported.value: 1250 nM

compound: C=CC1CC12C(=O)C1OC2(C)C2C(=O)c3cc4ccccc4cc3C(=O)C12 (stereo not given)
reported.value: 30200 nM

compound: CC(=O)O.CC(=O)O.CC(=O)O.CC(=O)O.CC(=O)O.CC(=O)O.O.[Ti].[Ti]
reported.value: > 100000 nM

compound: CC(=O)OC1Oc2ccccc2-c2oc(=O)c(-c3cc(=O)oc4cc(O)ccc34)cc21 (stereo not given)
reported.value: 17400 nM

compound: CC(C)(C)C(=O)OCOP(=O)(OCOC(=O)C(C)(C)C)C1CCCN(O)C1=O (stereo not given)
reported.value: 1520 nM

Data point: CCC[CH2][Sn]([CH2]CCC)([CH2]CCC)[O]C(=O)CC ; GI50 = 185 nM

Just so you know, measured GI50 for COc1ccc(N(C)c2ncnc3occ(C)c23)cc1 came out at < 10 nM

Form: compound = Clc1ccc2c(NCCCNc3nccc(Nc4ccc(Br)cc4)n3)ccnc2c1 ; GI50 = 1810 nM

// Cc1c2cccnc2c(C)c2c1c1cc(CO)ccc1n2C : GI50 value = 2490 nM

----------
GI50 values, listed per item
Test system: HCC-2998 colon
Assay: NCI tumour cell line growth inhibition, 48 h

# annotated cases, reported GI50 shown
molecule: C=C(F)C(=O)N1CCN(c2nc(OC[C@@H]3CCCN3C)nc3c2CCN(c2cccc4cccc(Cl)c24)C3)C[C@@H]1CC#N
GI50: 1.2 µM
//
molecule: CCOC(=O)Oc1c(OC)cc(C(=O)NC2CCc3cc(OC)c(OC)c(OC)c3-c3ccc(SC)c(=O)cc32)cc1OC (centres undefined)
GI50: 0.0156 µM
//
molecule: CNCCNc1c2c(c(NCCNC)c3c(CN(C)C)c[nH]c13)C(=O)c1ccccc1C2=O
GI50: 1.36 µM
//
molecule: O=C1NC(=Nc2ccccc2)S/C1=C\c1ccc2ncccc2c1
GI50: > 25 µM
//
molecule: CCOC(=O)/C=C/C(C(=O)/C=C/c1ccc(OC2CCCCO2)c(OC)c1)=C(O)\C=C\c1ccc(OC2CCCCO2)c(OC)c1 (centres undefined)
GI50: 9.53 µM

// recorded GI50 for Clc1ccc2c(NCCCNc3nccc(Nc4ccc(Br)cc4)n3)ccnc2c1 : 1.5 µM

Form field GI50, entry COCCOc1cc(F)c2c(Nc3ccc(NC(=O)Cn4cc(C(C)C)nn4)cc3)ncnc2c1 : > 100 µM

Form: molecule = C/C1=C\CC[C@@]2(C)O[C@@H]2[C@H]2OC(=O)[C@@H](CN(C)C)[C@@H]2CC1 ; GI50 = 18 µM

Lab note: measured GI50 of C=C(C=O)C1CCC2(C(=O)O)CCC3(C)C(CCC4C5(C)CCC(O)C(C)(C)C5CCC43C)C12 (centres undefined) was 1.93 µM

----------
Test system: DU-145 prostate
Assay: NCI tumour cell line growth inhibition, 48 h; in the data active = GI50 below about 0.43 µM; inactive = the rest
Give one outcome, nothing more. List: label 1 (active), label 0 (inactive)

compound: O=S(=O)([O-])c1ccc2c(c1)-c1nc-2nc2[n-]c(nc3nc(nc4[n-]c(n1)c1ccc(S(=O)(=O)[O-])cc41)-c1cc(S(=O)(=O)[O-])ccc1-3)c1ccc(S(=O)(=O)[O-])cc21.[Cu+2].[Na+]
answer.label: label 0

compound: C#Cc1cccc(Nc2ncnc3cc(OC)c(OCCCCCCC(=O)NO)cc23)c1
answer.label: label 1

compound: O=S(=O)(Nc1cc(F)cc(Cl)c1)c1ccc(-c2cnc(C3CC3)o2)cc1
answer.label: label 0

compound: C=C(F)C(=O)N1CCN(c2nc(OC[C@@H]3CCCN3C)nc3c2CCN(c2cccc4cccc(Cl)c24)C3)C[C@@H]1CC#N
answer.label: label 0

Ask: Test call, this compound: COc1ccc2c(c1)C(C)Cc1c(Cl)ncnc1N2C (stereo not drawn)
Result: label 0

Ask: Assay result, entry CCOc1nc(-c2ccccc2)cc2c(O)c(-c3nnco3)[nH]c(=O)c12 — outcome?
Result: label 0

Ask: Test call, this compound: NC(=NCCCOc1ccc(Cl)cc1)Nc1ccc(C(F)(F)F)cc1
Result: label 0

Ask: Field: outcome | Entry: CNCCNc1c2c(c(NCCNC)c3c(CN(C)C)c[nH]c13)C(=O)c1ccccc1C2=O
Result: label 0

----------
Test system: SNB-75 CNS
Assay: NCI tumour cell line growth inhibition, 48 h
Parameter: TGI. Scope: all listed entries.
Give just the number in µM; leave the unit off.

structure.smiles.string: O=[N+]([O-])c1ccc(/C=N/n2c(CO)nc3ccccc32)o1
assay.target: SNB-75 CNS
measurement.units: µM
TGI: 57.1

Let's switch to this compound now.
Item: CCN(CC)c1c(N(CC)CC)c(=O)c1=O | System: SNB-75 CNS | TGI: 62.6

----------
System: MDA-MB-435
Experiment: NCI tumour cell line growth inhibition, 48 h
Reported TGI values follow for various compounds

Some solved entries appear below for comparison.
compound: CCCCCN=Cc1c(O)c(O)c(C(C)C)c2cc(C)c(-c3c(C)cc4c(C(C)C)c(O)c(O)c(C=NCCCCC)c4c3O)c(O)c12
TGI: 17.8 µM

compound: CC1CC(N)=Nc2ccccc2N1 (stereo unspecified)
TGI: > 100 µM

compound: c1ccc(N=C2SC(=NC3CCCCC3)N(C3CCCCC3)C2=Nc2ccccc2)cc1
TGI: > 100 µM

compound: O=C(OCc1ccc2cccc(O)c2n1)N1CCN(C(=O)c2cc3cc(F)ccc3[nH]2)CC1
TGI: 2.8 µM

compound: CC(=O)OCCn1cnc2nc(Nc3ccccc3)nc(Cl)c21
TGI: > 100 µM

Considering CCn1c(-c2cc(OC)cc(OC)c2)nc2c1C(=O)c1ccccc1C2=O , its TGI with MDA-MB-435 was recorded as > 100 µM

Bench note, MDA-MB-435: entry CC(SC(C)C(=O)N/N=C/c1cccc(Cl)c1)C(=O)N/N=C\c1cccc(Cl)c1 (stereo unspecified) , its TGI = 23.9 µM

Measured on MDA-MB-435, C=CCNC1=C2C[C@@H](C)C[C@@H](OC)[C@H](OC(=O)CCCCN)[C@H](C)/C=C(\C)[C@@H](OC(N)=O)[C@H](OC)/C=C\C=C(/C)C(=O)NC(=CC1=O)C2=O has a documented TGI of 25.6 µM

Response field TGI (MDA-MB-435) for item COc1cc(-c2cc(=O)c3c(OC)c(OC)c(OC)c(OC)c3o2)c(OC)c(OC)c1OC : > 100 µM

Record for CNn1c(-c2ccccc2)n[nH]c1=O under target or system MDA-MB-435: TGI reported as > 100 µM
